Hey, just so you know, these numbers are from ChEMBL document CHEMBL1139861.

Molecular target: Progesterone receptor (Homo sapiens)
Sequence (P06401 whole entry): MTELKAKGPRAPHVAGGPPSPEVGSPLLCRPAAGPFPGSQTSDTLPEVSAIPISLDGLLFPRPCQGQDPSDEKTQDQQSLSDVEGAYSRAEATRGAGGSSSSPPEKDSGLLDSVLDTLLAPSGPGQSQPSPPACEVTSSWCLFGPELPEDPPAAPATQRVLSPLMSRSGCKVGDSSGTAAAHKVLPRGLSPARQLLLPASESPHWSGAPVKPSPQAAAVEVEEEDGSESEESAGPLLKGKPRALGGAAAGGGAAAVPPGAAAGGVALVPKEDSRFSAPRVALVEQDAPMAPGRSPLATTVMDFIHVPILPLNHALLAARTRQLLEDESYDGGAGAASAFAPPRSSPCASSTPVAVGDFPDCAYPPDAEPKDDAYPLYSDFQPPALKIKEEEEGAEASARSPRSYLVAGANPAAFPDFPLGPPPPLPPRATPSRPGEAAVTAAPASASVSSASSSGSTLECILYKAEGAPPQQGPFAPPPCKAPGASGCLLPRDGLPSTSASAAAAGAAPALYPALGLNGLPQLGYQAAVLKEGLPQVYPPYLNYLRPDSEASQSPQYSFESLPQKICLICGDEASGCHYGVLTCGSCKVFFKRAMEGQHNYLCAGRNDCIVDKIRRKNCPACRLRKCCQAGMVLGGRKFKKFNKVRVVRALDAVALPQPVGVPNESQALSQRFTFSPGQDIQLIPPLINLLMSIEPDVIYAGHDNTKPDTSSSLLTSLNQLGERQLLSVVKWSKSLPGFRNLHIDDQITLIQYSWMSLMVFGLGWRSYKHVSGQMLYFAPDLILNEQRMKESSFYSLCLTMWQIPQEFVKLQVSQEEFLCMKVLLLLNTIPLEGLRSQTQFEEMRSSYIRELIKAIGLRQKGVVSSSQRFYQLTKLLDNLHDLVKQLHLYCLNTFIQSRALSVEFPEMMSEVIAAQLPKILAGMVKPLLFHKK
Labelling field: enter satisfied if recorded Ki is less than 5 µM. Enter not satisfied if it equals or exceeds that cut-off.

compound	category
CCN1CCOc2cc3[nH]c(=O)cc(C(F)(F)F)c3cc21	not satisfied

Lab note: next compound to report on.
Problem: Does the reported Ki of O=c1cc(C(F)(F)F)c2cc3c(cc2[nH]1)OCCN3CC1CC1 stay below 5 µM?
Result: satisfied

====

Measurement record for UniProt:P10275; quantity recorded: pIC50.
Sequence (P10275 whole entry): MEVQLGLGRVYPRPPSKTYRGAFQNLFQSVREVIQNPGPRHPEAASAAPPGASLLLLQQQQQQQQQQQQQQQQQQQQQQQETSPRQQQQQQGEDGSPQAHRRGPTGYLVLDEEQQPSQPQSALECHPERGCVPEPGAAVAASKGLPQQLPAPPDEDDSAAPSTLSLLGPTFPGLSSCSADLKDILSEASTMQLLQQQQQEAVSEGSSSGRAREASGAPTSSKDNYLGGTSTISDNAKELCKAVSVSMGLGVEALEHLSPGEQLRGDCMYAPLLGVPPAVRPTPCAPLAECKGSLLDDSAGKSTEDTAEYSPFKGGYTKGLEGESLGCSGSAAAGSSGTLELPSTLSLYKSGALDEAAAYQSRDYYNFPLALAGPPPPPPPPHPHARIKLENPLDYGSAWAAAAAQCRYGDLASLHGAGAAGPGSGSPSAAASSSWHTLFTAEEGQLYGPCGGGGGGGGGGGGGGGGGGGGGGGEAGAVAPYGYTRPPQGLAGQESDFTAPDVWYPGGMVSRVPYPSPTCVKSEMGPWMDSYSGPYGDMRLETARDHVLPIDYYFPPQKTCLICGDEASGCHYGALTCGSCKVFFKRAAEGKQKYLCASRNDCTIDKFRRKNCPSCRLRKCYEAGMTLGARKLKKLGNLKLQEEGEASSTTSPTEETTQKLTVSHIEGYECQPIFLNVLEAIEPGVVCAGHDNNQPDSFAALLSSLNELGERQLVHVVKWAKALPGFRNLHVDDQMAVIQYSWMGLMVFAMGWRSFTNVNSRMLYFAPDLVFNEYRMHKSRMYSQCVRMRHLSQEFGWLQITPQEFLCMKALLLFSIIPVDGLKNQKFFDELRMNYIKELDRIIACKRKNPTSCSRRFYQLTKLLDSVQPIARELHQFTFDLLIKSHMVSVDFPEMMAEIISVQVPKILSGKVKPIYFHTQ
pIC50: −log10 of the molar value.

compound	dataValue
CC(C)(C)N1CCOc2cc3[nH]c(=O)cc(C(F)(F)F)c3cc21	< 5.00
CCC1CN(C)c2cc3c(C(F)(F)F)cc(=O)[nH]c3cc2O1 (racemic)	7.17
CCC1CN(CC)c2cc3c(C(F)(F)F)cc(=O)[nH]c3cc2O1 (racemic)	< 5.00
CN1CCOc2cc3[nH]c(=O)cc(C(F)(F)F)c3cc21	< 5.00
CCN1CCOc2cc3[nH]c(=O)cc(C(F)(F)F)c3cc21	< 5.00

Tested on UniProt:P10275, the item O=c1cc(C(F)(F)F)c2cc3c(cc2[nH]1)OCCN3 showed pIC50 equal to 6.53
